test: Volume of distribution at steady state in Sprague-Dawley rat at 1.0 mg/kg, iv measured upto 24 hrs by LC-MS/MS analysis; assay type: ADME, organism-based; details: in vivo, read-out: Vdss
measurement.kind: Vd (L/kg)
Answers are plain numbers, in L/kg.

In: # input compound: `Fc1cc(F)c(F)c(-c2ccc(N[C@H]3C[C@@H]4CN(CC5CCOCC5)C[C@@H]4C3)nn2)c1` ; wanted: its Vd
Out: 6.7

---

target: hERG (Homo sapiens); test: Inhibition of human ERG at 10 uM relative to control
Sequence (Q12809 whole entry): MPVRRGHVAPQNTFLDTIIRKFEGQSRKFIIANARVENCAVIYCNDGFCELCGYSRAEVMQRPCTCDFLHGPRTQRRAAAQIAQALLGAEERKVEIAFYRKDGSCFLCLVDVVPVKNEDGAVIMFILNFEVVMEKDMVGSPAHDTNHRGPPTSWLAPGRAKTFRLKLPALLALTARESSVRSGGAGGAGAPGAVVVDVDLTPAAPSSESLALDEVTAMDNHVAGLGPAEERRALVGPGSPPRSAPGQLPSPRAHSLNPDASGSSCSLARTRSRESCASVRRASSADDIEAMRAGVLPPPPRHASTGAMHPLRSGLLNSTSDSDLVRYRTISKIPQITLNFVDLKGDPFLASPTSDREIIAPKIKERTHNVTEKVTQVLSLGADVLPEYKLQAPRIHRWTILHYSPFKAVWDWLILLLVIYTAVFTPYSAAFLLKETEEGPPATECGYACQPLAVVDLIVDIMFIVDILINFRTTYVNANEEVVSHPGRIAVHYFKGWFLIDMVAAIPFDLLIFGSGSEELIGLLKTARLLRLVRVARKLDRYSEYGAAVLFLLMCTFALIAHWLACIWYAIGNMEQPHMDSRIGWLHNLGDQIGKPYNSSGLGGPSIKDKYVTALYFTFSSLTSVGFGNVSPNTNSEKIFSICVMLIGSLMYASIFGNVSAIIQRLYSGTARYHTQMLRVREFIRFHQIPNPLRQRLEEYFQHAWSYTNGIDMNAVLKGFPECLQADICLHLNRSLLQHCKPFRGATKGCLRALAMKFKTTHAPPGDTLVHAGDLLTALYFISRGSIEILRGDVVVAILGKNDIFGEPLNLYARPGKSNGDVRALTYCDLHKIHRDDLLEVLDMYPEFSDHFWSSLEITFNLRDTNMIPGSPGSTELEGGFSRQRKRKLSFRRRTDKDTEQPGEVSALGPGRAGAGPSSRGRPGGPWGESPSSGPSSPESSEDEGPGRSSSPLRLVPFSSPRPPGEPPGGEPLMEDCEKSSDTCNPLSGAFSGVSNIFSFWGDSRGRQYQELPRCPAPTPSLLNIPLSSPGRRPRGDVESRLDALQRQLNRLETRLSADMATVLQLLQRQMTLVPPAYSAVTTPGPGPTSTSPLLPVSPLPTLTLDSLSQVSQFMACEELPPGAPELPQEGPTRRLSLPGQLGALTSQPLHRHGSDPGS
measurement.kind: inhibition at 10 µM (%)
Answers are plain numbers, in %.

In: # input compound: `Fc1cc(F)c(F)c(-c2ccc(N[C@H]3C[C@@H]4CN(CC5CCOCC5)C[C@@H]4C3)nn2)c1` ; wanted: its inhibition at 10 µM
Out: 61

---

assay: Ratio of free drug concentration in CSF to plasma of Sprague-Dawley rat at 1 mg/kg, iv; format: ADME, organism-based
measurement.kind: Kp uu
One number for each entry.

In: # input compound: `Fc1cc(F)c(F)c(-c2ccc(N[C@H]3C[C@@H]4CN(CC5CCOCC5)C[C@@H]4C3)nn2)c1` ; wanted: its Kp uu
Out: 0.24

---

biological target: Cytochrome P450 2C19 (Homo sapiens, UniProt P33261); experiment: Time dependent inhibition of CYP2C19 (unknown origin)
Sequence (P33261 whole entry): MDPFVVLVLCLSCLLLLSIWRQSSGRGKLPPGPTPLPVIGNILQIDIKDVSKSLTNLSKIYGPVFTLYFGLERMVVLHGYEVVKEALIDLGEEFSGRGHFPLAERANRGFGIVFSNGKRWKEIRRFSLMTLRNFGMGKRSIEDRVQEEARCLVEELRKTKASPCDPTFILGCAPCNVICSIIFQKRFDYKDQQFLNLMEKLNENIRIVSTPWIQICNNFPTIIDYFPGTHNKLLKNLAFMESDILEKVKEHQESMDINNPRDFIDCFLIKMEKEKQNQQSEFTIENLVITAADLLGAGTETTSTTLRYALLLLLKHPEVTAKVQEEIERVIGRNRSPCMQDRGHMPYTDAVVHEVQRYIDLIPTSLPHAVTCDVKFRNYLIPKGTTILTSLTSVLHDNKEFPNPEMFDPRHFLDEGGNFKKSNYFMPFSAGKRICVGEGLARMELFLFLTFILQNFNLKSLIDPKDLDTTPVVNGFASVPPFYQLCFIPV
measurement.kind: IC50

In: # input compound: `Fc1cc(F)c(F)c(-c2ccc(N[C@H]3C[C@@H]4CN(CC5CCOCC5)C[C@@H]4C3)nn2)c1` ; wanted: its IC50
Out: > 100 µM

---

Kindly supply the reported inhibition values for the records listed here.
assay: Antagonist activity at human muscarinic acetylcholine M4 receptor expressed in CHO cells assessed as inhibition of acetylcholine-induced calcium mobilization relative to control; type: cell-based; set-up: concentration or dose not given beside the values; details: concentration not given here
One number for each entry, in %.

Known results for molecules:
Fc1ccc(-c2ccc(N[C@H]3C[C@@H]4CN(CC5CCOCC5)C[C@@H]4C3)nn2)cc1	4
Fc1cccc(-c2ccc(N[C@H]3C[C@@H]4CN(CC5CCOCC5)C[C@@H]4C3)nn2)c1	4

As a next step, examine the molecule that follows.
In: # input molecule: `CN1Cc2cc(-c3ccc(N[C@H]4C[C@@H]5CN(CC6CCOCC6)C[C@@H]5C4)nn3)ccc2C1=O` ; wanted: its inhibition
Out: 3
